Protocol details: Bioavailability study in rats
Type: in vivo
Condition label: male, Wistar, blood; rat, oral 10 mg/kg, single dose, vs 1 mg/kg intravenous; read-out: Bioavailability (Fabs)
Measure name: bioavailability (%)
The figure you give is taken to be in %; do not add the unit.

Problem: # return recorded bioavailability for entry CN(C)C(=O)c1ccc(C(=C2CCN(Cc3cncs3)CC2)c2cccc(C(N)=O)c2)cc1 [Form HCl2]
Result: 35.5
